Can you tell me IC50 for the items I'm about to list?
Test: Inhibition of gamma-secretase-mediated amyloid beta-42 production in diluted 2B7 conditioned media after 5 hrs
Note: state the figure and append the unit.

(Q) Need IC50, item "CC(=O)O[C@@H]([C@H]1C[C@@H](C)[C@H]2[C@H](O1)[C@H](O)[C@@]1(C)[C@@H]3CC[C@H]4C(C)(C)[C@@H](O[C@H]5CN(C)CCO5)CC[C@@]45C[C@@]35CC[C@]21C)C(C)(C)O"
(A) 130 nM

(Q) Need IC50, item "CC(=O)O[C@@H]([C@H]1C[C@@H](C)[C@H]2[C@H](O1)[C@H](O)[C@@]1(C)[C@@H]3CC[C@H]4C(C)(C)[C@@H](O)CC[C@@]45C[C@@]35CC[C@]21C)C(C)(C)O"
(A) 600 nM

(Q) Need IC50, item "CC(=O)O[C@@H]([C@H]1C[C@@H](C)[C@H]2[C@H](O1)[C@H](O)[C@@]1(C)[C@@H]3CC[C@H]4C(C)(C)[C@@H](O[C@H]5CN(C6CCOCC6)CCO5)CC[C@@]45C[C@@]35CC[C@]21C)C(C)(C)O"
(A) 180 nM

(Q) Need IC50, item "CC(=O)O[C@@H]([C@H]1C[C@@H](C)[C@H]2[C@H](O1)[C@H](O)[C@@]1(C)[C@@H]3CC[C@H]4C(C)(C)[C@@H](O[C@H]5CN([C@H]6CCNC6=O)CCO5)CC[C@@]45C[C@@]35CC[C@]21C)C(C)(C)O"
(A) 200 nM

====

Assay: Drug level in CD1 mouse brain at 30 mg/kg, po after 6 hrs
Format: ADME, organism-based
Parameters: dose 30 mg/kg, route oral
Conditions: read-out: Drug uptake
propertyName: concentration at 6 h (ng/g)
Give just the numeric value; ng/g need not be written.

(Q) Need concentration at 6 h, item "CC(=O)O[C@@H]([C@H]1C[C@@H](C)[C@H]2[C@H](O1)[C@H](O)[C@@]1(C)[C@@H]3CC[C@H]4C(C)(C)[C@@H](O[C@H]5CNCCO5)CC[C@@]45C[C@@]35CC[C@]21C)C(C)(C)O"
(A) 1630

====

Experiment: Inhibition of gamma-secretase-mediated amyloid beta-38 production in diluted 2B7 conditioned media after 5 hrs
propertyName: pIC50
Kindly note that pIC50 refers to -log10 of the concentration in mol/L and answer with the value alone.

(Q) Need pIC50, item "CC(=O)O[C@@H]([C@H]1C[C@@H](C)C2=C(O1)[C@H](O)[C@@]1(C)[C@@H]3CC[C@H]4C(C)(C)[C@@H](O[C@@H]5OC[C@@H](O)[C@H](O)[C@H]5O)CC[C@@]45C[C@@]35CC[C@]21C)C(C)(C)O"
(A) 7.21

(Q) Need pIC50, item "CC(=O)O[C@@H]([C@H]1C[C@@H](C)[C@H]2[C@H](O1)[C@H](O)[C@@]1(C)[C@@H]3CC[C@H]4C(C)(C)[C@@H](O[C@@H]5OC[C@@H](O)[C@H](O)[C@H]5O)CC[C@@]45C[C@@]35CC[C@]21C)C(C)(C)O"
(A) 7.08

(Q) Need pIC50, item "CC(=O)O[C@@H]([C@H]1C[C@@H](C)[C@H]2[C@H](O1)[C@H](O)[C@@]1(C)[C@@H]3CC[C@H]4C(C)(C)[C@@H](O[C@H]5CN(C6COC6)CCO5)CC[C@@]45C[C@@]35CC[C@]21C)C(C)(C)O"
(A) 6.52

(Q) Need pIC50, item "CC(=O)O[C@@H]([C@H]1C[C@@H](C)[C@H]2[C@H](O1)[C@H](O)[C@@]1(C)[C@@H]3CC[C@H]4C(C)(C)[C@@H](O[C@H]5CNCCO5)CC[C@@]45C[C@@]35CC[C@]21C)C(C)(C)O"
(A) 7.10

====

Can you tell me remaining at 1 h, 1 µM for the items I'm about to list?
Experiment: Metabolic stability in CD1 mouse liver microsomes assessed as compound remaining at 1 uM after 60 mins in presence of NADPH
Format: ADME, Microsome
Conditions: read-out: Stability
Give just the numeric value; % need not be written.

(Q) Need remaining at 1 h, 1 µM, item "CC(=O)O[C@@H]([C@H]1C[C@@H](C)[C@H]2[C@H](O1)[C@H](O)[C@@]1(C)[C@@H]3CC[C@H]4C(C)(C)[C@@H](O[C@H]5CN(C6COC6)CCO5)CC[C@@]45C[C@@]35CC[C@]21C)C(C)(C)O"
(A) 1

(Q) Need remaining at 1 h, 1 µM, item "CC(=O)O[C@@H]([C@H]1C[C@@H](C)[C@H]2[C@H](O1)[C@H](O)[C@@]1(C)[C@@H]3CC[C@H]4C(C)(C)[C@@H](O[C@H]5CNCCO5)CC[C@@]45C[C@@]35CC[C@]21C)C(C)(C)O"
(A) 25

====

Test: Dissociation constant, pKa of the compound
Assay type: physicochemical
propertyName: pKa
Simply state the number, no unit and no words.

(Q) Need pKa, item "CC(=O)O[C@@H]([C@H]1C[C@@H](C)[C@H]2[C@H](O1)[C@H](O)[C@@]1(C)[C@@H]3CC[C@H]4C(C)(C)[C@@H](O[C@H]5CN(C6COC6)CCO5)CC[C@@]45C[C@@]35CC[C@]21C)C(C)(C)O"
(A) 4.6

(Q) Need pKa, item "CC(=O)O[C@@H]([C@H]1C[C@@H](C)[C@H]2[C@H](O1)[C@H](O)[C@@]1(C)[C@@H]3CC[C@H]4C(C)(C)[C@@H](O[C@H]5CNCCO5)CC[C@@]45C[C@@]35CC[C@]21C)C(C)(C)O"
(A) 7.7

====

Assay: AUC in CD1 mouse at 30 mg/kg, po
Type: ADME, organism-based
Set-up: dose 30 mg/kg, route oral
Details: plasma
Can you tell me AUC for the items I'm about to list?
Give just the numeric value; ng·h/mL need not be written.

(Q) Need AUC, item "CC(=O)O[C@@H]([C@H]1C[C@@H](C)[C@H]2[C@H](O1)[C@H](O)[C@@]1(C)[C@@H]3CC[C@H]4C(C)(C)[C@@H](O[C@H]5CNCCO5)CC[C@@]45C[C@@]35CC[C@]21C)C(C)(C)O"
(A) 3620

(Q) Need AUC, item "CC(=O)O[C@@H]([C@H]1C[C@@H](C)[C@H]2[C@H](O1)[C@H](O)[C@@]1(C)[C@@H]3CC[C@H]4C(C)(C)[C@@H](O[C@H]5CN(C6COC6)CCO5)CC[C@@]45C[C@@]35CC[C@]21C)C(C)(C)O"
(A) 1010

====

Assay: Inhibition of gamma-secretase-mediated amyloid beta-40 production in diluted 2B7 conditioned media at 4 uM after 5 hrs
Entry flag: condition met if inhibition reaches 40%; condition not met if it does not.

(Q) Could you verify whether the entry "CC(=O)O[C@@H]([C@H]1C[C@@H](C)[C@H]2[C@H](O1)[C@H](O)[C@@]1(C)[C@@H]3CC[C@H]4C(C)(C)[C@@H](O[C@H]5CN(C6CCC6)CCO5)CC[C@@]45C[C@@]35CC[C@]21C)C(C)(C)O" shows inhibition of no less than 40%?
(A) condition met

(Q) Could you verify whether the entry "CC(=O)O[C@@H]([C@H]1C[C@@H](C)[C@H]2[C@H](O1)[C@H](O)[C@@]1(C)[C@@H]3CC[C@H]4C(C)(C)[C@@H](O[C@H]5CN(Cc6ncc[nH]6)CCO5)CC[C@@]45C[C@@]35CC[C@]21C)C(C)(C)O" shows inhibition of no less than 40%?
(A) condition not met

(Q) Could you verify whether the entry "CCN1CCO[C@@H](O[C@H]2CC[C@]34C[C@]35CC[C@]3(C)[C@@H]6[C@H](O[C@@H]([C@H](OC(C)=O)C(C)(C)O)C[C@H]6C)[C@H](O)[C@@]3(C)[C@@H]5CC[C@H]4C2(C)C)C1" shows inhibition of no less than 40%?
(A) condition met

(Q) Could you verify whether the entry "CC(=O)O[C@@H]([C@H]1C[C@@H](C)[C@H]2[C@H](O1)[C@H](O)[C@@]1(C)[C@@H]3CC[C@H]4C(C)(C)[C@@H](O[C@H]5CN(CCO)CCO5)CC[C@@]45C[C@@]35CC[C@]21C)C(C)(C)O" shows inhibition of no less than 40%?
(A) condition met

(Q) Could you verify whether the entry "CC(=O)O[C@@H]([C@H]1C[C@@H](C)[C@H]2[C@H](O1)[C@H](O)[C@@]1(C)[C@@H]3CC[C@H]4C(C)(C)[C@@H](O[C@H]5CN(Cc6ccccc6)CCO5)CC[C@@]45C[C@@]35CC[C@]21C)C(C)(C)O" shows inhibition of no less than 40%?
(A) condition not met

(Q) Could you verify whether the entry "CC(=O)O[C@@H]([C@H]1C[C@@H](C)[C@H]2[C@H](O1)[C@H](O)[C@@]1(C)[C@@H]3CC[C@H]4C(C)(C)[C@@H](O[C@H]5CN(CCN6CCOCC6)CCO5)CC[C@@]45C[C@@]35CC[C@]21C)C(C)(C)O" shows inhibition of no less than 40%?
(A) condition met

(Q) Could you verify whether the entry "CC(=O)O[C@@H]([C@H]1C[C@@H](C)[C@H]2[C@H](O1)[C@H](O)[C@@]1(C)[C@@H]3CC[C@H]4C(C)(C)[C@@H](O[C@H]5CN(C6CCOCC6)CCO5)CC[C@@]45C[C@@]35CC[C@]21C)C(C)(C)O" shows inhibition of no less than 40%?
(A) condition not met
